B1: NP_006221.1 (parent)
chain: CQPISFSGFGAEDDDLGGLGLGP

Variants of: B1
Method summary: protein stability index of a GFP-peptide fusion (GPS, HEK-293T) (PSI 1-6); higher = more stable;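 note: lentivirally expressed fusion library, cells FACS-sorted into six equal-sized GFP/DsRed ratio bins, PSI computed from sequencing read fractions per bin weighted by bin number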
Condition summary: c terminus: native
Please respond with reported protein stability index for every item in the list.
One number for each entry.

Past entries and their recorded results:
{"columns": ["Variant", "protein stability index"],
 "data": [
  ["A11V", 2.33],
  ["P3Y", 2.01]
]}

**Query** I have this variant here, "P23T" , and I need its recorded protein stability index.
**Result** 3.8
